Target: KRAS-PI3Kα interaction (KRAS-Q25A binding to avi-tagged full length PI3Kα) (Homo sapiens (Human), UniProt P42336)
Sequence (P42336 whole entry, looked up, stated change not applied): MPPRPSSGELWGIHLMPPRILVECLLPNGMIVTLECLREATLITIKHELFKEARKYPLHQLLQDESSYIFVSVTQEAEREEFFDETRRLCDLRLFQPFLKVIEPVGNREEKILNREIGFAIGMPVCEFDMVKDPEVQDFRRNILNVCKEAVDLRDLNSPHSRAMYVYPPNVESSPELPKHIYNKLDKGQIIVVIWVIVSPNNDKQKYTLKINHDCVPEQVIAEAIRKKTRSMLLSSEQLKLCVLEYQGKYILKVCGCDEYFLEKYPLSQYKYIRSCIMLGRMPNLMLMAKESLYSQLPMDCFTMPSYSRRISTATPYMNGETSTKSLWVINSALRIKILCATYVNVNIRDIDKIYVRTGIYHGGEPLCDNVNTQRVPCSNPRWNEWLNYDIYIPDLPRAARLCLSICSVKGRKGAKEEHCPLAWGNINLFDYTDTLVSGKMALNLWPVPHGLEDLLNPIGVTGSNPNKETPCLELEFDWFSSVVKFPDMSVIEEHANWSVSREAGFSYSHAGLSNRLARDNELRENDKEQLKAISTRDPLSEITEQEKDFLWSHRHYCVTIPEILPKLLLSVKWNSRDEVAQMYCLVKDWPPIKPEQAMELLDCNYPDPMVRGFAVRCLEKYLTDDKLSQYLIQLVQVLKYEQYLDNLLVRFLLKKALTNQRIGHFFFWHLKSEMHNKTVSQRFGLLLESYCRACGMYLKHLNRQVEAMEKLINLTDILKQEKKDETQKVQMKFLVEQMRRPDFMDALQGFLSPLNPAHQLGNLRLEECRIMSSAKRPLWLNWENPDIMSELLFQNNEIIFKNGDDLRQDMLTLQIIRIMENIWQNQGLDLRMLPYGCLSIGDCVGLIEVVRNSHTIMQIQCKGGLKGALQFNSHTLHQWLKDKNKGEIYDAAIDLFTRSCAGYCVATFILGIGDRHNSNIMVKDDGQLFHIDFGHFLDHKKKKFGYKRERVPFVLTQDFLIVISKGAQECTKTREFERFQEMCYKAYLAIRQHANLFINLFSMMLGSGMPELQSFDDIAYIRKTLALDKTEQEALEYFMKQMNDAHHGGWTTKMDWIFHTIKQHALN
Sequence (P27986 whole entry partner, looked up): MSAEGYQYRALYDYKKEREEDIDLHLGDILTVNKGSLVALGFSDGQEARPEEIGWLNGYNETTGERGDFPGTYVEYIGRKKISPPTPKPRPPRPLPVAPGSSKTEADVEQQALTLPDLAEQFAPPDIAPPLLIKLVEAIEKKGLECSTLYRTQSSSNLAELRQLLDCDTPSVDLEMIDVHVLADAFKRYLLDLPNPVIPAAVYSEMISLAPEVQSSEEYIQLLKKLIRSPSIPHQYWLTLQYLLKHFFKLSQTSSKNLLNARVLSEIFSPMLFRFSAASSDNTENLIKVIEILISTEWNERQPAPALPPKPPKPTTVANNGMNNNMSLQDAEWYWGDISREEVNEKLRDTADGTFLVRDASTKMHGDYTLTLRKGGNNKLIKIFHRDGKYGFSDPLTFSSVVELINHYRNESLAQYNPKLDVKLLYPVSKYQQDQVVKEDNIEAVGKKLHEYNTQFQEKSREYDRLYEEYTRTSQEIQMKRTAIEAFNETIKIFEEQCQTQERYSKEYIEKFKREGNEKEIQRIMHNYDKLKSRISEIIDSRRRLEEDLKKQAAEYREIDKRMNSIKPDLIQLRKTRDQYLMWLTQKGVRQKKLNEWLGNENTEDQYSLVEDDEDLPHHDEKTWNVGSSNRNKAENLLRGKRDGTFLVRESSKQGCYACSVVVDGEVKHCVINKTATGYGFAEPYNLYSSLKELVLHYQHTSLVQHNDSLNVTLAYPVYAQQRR
Experiment: Disrupting KRAS-PI3Kα interaction by SPR inhibition assay
Details: KRAS-Q25A at 20 μM, 25° C.
METRIC NAME: IC50

compound=COCCOc1cc(F)ccc1-c1c(-c2cccc(CN)c2)nc(-c2ccc3c(c2)CCNC3)c2ccsc12 metric_name=IC50 recorded_measurement="5 to 25 µM"
compound="C=CC(=O)N1CCCC(n2cc(-c3nc(-c4ccc5c(c4)CCNC5)c4ccsc4c3-c3ccc(F)cc3OCCOC)cn2)C1 (stereo not drawn)" metric_name=IC50 recorded_measurement="< 5 µM"
compound=C=CC(=O)NCCn1cc(-c2nc(-c3ccc4c(c3)CCNC4)c3ccsc3c2-c2ccc(F)cc2OCCOC)cn1 metric_name=IC50 recorded_measurement="5 to 25 µM"

Consider "C=CC(=O)N1CCC(n2cc(-c3nc(-c4cnn(C)c4)c4ccsc4c3-c3ccc(F)cc3OCCOC)cn2)CC1" . Its measured IC50 is > 25 µM

// IC50 lookup, compound = "COCCOc1ccccc1-c1c(-c2ccc(=O)n(C)c2)nc(-c2ccc3c(c2)CCNC3)c2c1CCC2" , result: > 25 µM

Reported IC50 ( "C=CC(=O)N1CC(n2cc(-c3nc(-c4ccc5c(c4)CCNC5)c4ccsc4c3-c3ccc(F)cc3OCCOC)cn2)C1" ) = 5 to 25 µM

###

pIC50 for assorted molecules
Target: KRAS-PI3Kα interaction (KRAS-Q25A binding to avi-tagged full length PI3Kα) (Homo sapiens (Human))
Experiment: Disrupting KRAS-PI3Kα interaction by SPR inhibition assay
Details: KRAS-Q25A at 20 μM, 25° C.
pIC50: −log10 of the molar value.

Please review the entries below; each comes with its answer.
molecule=C=CC(=O)n1cnc(-c2nc(-c3ccc4c(c3)CCNC4)c3ccsc3c2-c2ccc(F)cc2OCCOC)c1 recorded_measurement="4.60 to 5.30"
molecule=COCCOc1ccccc1-c1c(-c2cccc(C#N)c2)nc(-c2ccc3c(c2)CCNC3)c2c1CCC2 recorded_measurement="< 4.60"
molecule=C=CC(=O)Nc1cccc(-c2nc(-c3ccc4c(c3)CNC(=O)C4)c3ccsc3c2-c2ccc(F)cc2OCCOC)c1 recorded_measurement="4.60 to 5.30"
molecule="C=CC(=O)Nc1cccc(-c2nc(-c3ccc4c(c3)CCC(N(C)C)C4)c3ccsc3c2-c2ccc(F)cc2OCCOC)c1 (stereo not drawn)" recorded_measurement="> 5.30"
molecule=COCCOc1cc(F)ccc1-c1c(-c2cnn(CC(C)(C)C)c2)nc(-c2ccc3c(c2)CCNC3)c2ccsc12 recorded_measurement="4.60 to 5.30"
molecule=Fc1ccc(-c2c(-c3ccccc3)nc(-c3ccc4c(c3)CCNC4)c3ccsc23)c(OCc2ncccc2F)c1 recorded_measurement="4.60 to 5.30"
molecule=COCCOc1cc(F)ccc1-c1c(-c2cccc(NC(=O)C(C)C)c2)nc(-c2ccc3c(c2)CCNC3)c2ccsc12 recorded_measurement="> 5.30"
molecule=COCCOc1cc(F)ccc1-c1c(-c2ccc3cc[nH]c3c2)nc(-c2ccc3c(c2)CCNC3)c2ccsc12 recorded_measurement="4.60 to 5.30"

Here's the next entry for you.
Recorded pIC50 (molecule "COCCOc1cc(F)ccc1-c1c(-c2cnn(CC(=O)N3CCCC3)c2)nc(-c2ccc3c(c2)CCNC3)c2ccsc12" ): 4.60 to 5.30
